Just for reference, ChEMBL document CHEMBL1156829 is where these values come from.

tested on: Plasmodium falciparum; assay: NOVARTIS: Inhibition of Plasmodium falciparum 3D7 (drug-susceptible) proliferation in erythrocyte-based infection assay; assay type: functional, organism-based; details: Plasmodium falciparum, 3D7
REPORTED_ENDPOINT: pEC50
Answers are plain numbers, as −log10 of the molar value.

Some compounds with known pEC50 results, for comparison:
CCC1(C)CC(CCNCc2ccccc2O)(c2ccc(OC)cc2)CCO1 (stereo not given) :: 6.34
CN1C(=O)N(C)C2(c3ccccc3)NN3C(=NC12c1ccccc1)SC1=C3C(=O)c2ccccc2C1=O (stereo not given) :: 5.55
CCCCNC(=O)N1CCN(C(=O)C(Cc2c[nH]c3ccccc23)NC(=O)Nc2cccc(C#N)c2)CC1C (stereo not given) :: 6.81

Need pEC50 of COc1ccc(C2CC(=O)C3=C(C2)NC(C)=C(C(=O)OC(C)C)C3c2ccc(Cl)cc2Cl)cc1OC (stereo not given) , thanks. 8.20
